Test: Pharmacokinetic profile, IV and PO administration
Assay type: in vivo, female rats
Details: rat, plasma; female rats, oral dose

# molecule, bioavailability (%)
records = [
    ("COc1cc(Nc2nccc(Nc3cccnc3-c3ccccn3)n2)cc(OC)c1OC [Compound 12]", 95),
]

----------
Measured IC50 of individual entries
Target chain: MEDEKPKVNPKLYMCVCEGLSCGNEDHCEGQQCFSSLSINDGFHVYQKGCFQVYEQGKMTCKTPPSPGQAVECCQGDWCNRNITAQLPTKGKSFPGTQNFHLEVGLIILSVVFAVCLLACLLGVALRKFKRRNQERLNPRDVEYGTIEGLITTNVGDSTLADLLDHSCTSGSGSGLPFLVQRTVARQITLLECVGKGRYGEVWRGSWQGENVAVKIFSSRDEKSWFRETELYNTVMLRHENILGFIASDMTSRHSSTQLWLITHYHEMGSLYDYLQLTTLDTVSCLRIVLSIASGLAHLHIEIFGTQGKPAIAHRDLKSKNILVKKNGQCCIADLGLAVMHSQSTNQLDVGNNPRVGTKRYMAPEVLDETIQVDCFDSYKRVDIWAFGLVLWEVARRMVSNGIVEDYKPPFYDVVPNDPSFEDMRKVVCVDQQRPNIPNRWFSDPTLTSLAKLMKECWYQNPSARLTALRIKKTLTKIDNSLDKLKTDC
measurement_name: IC50

# given_smiles, measurement_name, reported_result
records = [
    ("COc1cc(Nc2nccc(Nc3ccc(C)c(CC#N)c3)n2)ccc1N1CCN(C)CC1", "IC50", "0.01 to 1 µM"),
    ("N#CCc1cc(F)ccc1Nc1ccnc(Nc2ccc(N3CCN(CCO)CC3)c(Cl)c2)n1", "IC50", "0.01 to 1 µM"),
    ("Cc1ccc(Nc2ccnc(Nc3ccc(N4CCN(CCO)CC4)c(Cl)c3)n2)c(-c2ccccn2)n1", "IC50", "0.01 to 1 µM"),
    ("COc1cc(Nc2nccc(Nc3ccc(C)cc3CC#N)n2)ccc1N1CCN(C)CC1", "IC50", "0.01 to 1 µM"),
    ("COc1cc(Nc2nccc(Nc3cccc(C4(C#N)CC4)c3)n2)cc(OC)c1OC", "IC50", "> 1 µM"),
    ("COc1cnc(Nc2ccc(N3CCN(CCO)CC3)c(Cl)c2)nc1Nc1cccc(C2(C#N)CC2)c1", "IC50", "> 1 µM"),
    ("COc1cc(Nc2nccc(Nc3ccc(C)nc3-c3ccccn3)n2)ccc1N1CCN(C)CC1", "IC50", "0.01 to 1 µM"),
]

----------
Test: Pharmacokinetic profile, IV and PO administration
Type: in vivo, female rats
Conditions: female, rat, plasma; PO, free base or salt form as labelled; read-out: Cmax

# given_smiles, reading_unit, Cmax
records = [
    ("COc1cc(Nc2nccc(Nc3cccc(C4(C#N)CC4)c3)n2)ccc1N1CCN(C)CC1", "ng/mL", 118),
]

----------
Target: JAK2 kinase (Homo sapiens, UniProt O60674)
Sequence (O60674 whole entry): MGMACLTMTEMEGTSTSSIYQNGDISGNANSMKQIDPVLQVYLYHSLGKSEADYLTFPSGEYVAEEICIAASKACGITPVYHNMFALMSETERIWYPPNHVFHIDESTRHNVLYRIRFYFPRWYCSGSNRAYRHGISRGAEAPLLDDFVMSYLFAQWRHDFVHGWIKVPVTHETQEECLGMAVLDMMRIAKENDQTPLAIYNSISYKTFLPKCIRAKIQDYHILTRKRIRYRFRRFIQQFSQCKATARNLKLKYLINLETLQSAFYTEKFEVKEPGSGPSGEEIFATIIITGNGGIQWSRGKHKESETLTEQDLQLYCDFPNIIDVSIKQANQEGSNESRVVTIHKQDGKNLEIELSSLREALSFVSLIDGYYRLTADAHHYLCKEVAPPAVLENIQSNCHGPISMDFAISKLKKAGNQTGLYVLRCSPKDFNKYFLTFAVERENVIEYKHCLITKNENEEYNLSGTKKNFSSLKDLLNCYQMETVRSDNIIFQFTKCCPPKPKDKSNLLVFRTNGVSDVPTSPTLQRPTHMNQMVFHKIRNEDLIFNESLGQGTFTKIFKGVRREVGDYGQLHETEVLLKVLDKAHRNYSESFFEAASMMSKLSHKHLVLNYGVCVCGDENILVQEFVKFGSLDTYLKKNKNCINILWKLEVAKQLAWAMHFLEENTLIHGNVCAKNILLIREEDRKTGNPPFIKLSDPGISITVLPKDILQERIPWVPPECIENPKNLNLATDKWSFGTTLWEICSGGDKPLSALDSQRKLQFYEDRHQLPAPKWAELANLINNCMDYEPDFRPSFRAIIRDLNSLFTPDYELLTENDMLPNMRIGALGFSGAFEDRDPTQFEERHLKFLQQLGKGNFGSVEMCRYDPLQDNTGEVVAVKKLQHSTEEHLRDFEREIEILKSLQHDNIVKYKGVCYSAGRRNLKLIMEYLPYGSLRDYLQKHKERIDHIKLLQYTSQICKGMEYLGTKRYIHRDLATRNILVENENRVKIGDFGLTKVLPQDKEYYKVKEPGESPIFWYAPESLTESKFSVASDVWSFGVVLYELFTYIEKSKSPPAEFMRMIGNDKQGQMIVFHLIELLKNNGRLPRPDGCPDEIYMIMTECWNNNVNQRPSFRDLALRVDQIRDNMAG
pIC50: −log10 of the molar value.

# given_smiles, pIC50
rows = [
    ("COc1cc(Nc2ncc(OC)c(Nc3cccnc3-c3ccccn3)n2)ccc1N1CCN(C)CC1", "6.00 to 8.00"),
    ("N#CCc1cc(F)ccc1Nc1ccnc(Nc2ccc(N3CCN(CCO)CC3)c(Cl)c2)n1", "6.00 to 8.00"),
    ("CN1CCN(c2ccc(Nc3ncc(Cl)c(Nc4cccc(CC#N)c4)n3)cc2F)CC1", "< 6.00"),
    ("Cc1ccc(Nc2ccnc(Nc3ccc(N4CCN(CCO)CC4)c(Cl)c3)n2)c(-c2ccccn2)n1", "< 6.00"),
    ("COc1cc(Nc2nccc(Nc3ccc(C)nc3-c3ccccn3)n2)ccc1N1CCN(C)CC1", "< 6.00"),
    ("N#CC1(c2cccc(Nc3ccnc(Nc4ccc(N5CCN(CCO)CC5)c(Cl)c4)n3)c2)CC1", "> 8.00"),
    ("COc1cc(Nc2nccc(Nc3ccc(C)nc3-c3ccccn3)n2)cc(OC)c1OC", "< 6.00"),
    ("COc1cc(Nc2nccc(Nc3ccc(C)cc3CC#N)n2)ccc1N1CCN(C)CC1", "6.00 to 8.00"),
    ("COc1cnc(Nc2ccc(N3CCN(CCO)CC3)c(Cl)c2)nc1Nc1cccnc1-c1ccccn1", "< 6.00"),
]

----------
Assay: Pharmacokinetic profile, IV and PO administration
Assay type: in vivo, female rats
Conditions: female, rat, plasma, iv; read-out: Cmax
measurement_name: Cmax (ng/mL)

# given_smiles, reading_unit, reported_result
records = [
    ("COc1cc(Nc2nccc(Nc3cccc(C4(C#N)CC4)c3)n2)ccc1N1CCN(C)CC1", "ng/mL", 996),
]

----------
Assay: Pharmacokinetic profile, IV and PO administration
Assay type: in vivo, female rats
Details: female, rat, plasma; PO, free base or salt form as labelled; read-out: Tmax

# compound, reading_unit, Tmax
rows = [
    ("COc1cc(Nc2nccc(Nc3cccc(C4(C#N)CC4)c3)n2)ccc1N1CCN(C)CC1 [Compound 4]", "h", 2),
]

----------
Assay: Pharmacokinetic profile, IV and PO administration
Assay type: in vivo, female rats
Settings: female, rat, plasma; PO, free base or salt form as labelled; read-out: t½ (converted)

# compound, reading_unit, half-life
data = [
    ("COc1cc(Nc2nccc(Nc3cccc(C4(C#N)CC4)c3)n2)ccc1N1CCN(C)CC1 [Compound 4]", "min", 390),
]
